Experiment: LNP size and polydispersity by DLS (Malvern Panalytical)
Assay type: physicochemical
Details: LNP size, mRNA LNPs of Table 18
attribute-measured: Z-avg. (nm·days)
The response must be a number in nm·days with no trailing unit.

Form: molecule = ARK002: mRNA: SP + WP_012956721.1 (Methanobrevibacter ruminantium) + TM/C; SEQ ID NO: 16677 (nucleic acid, listed as DNA) ATGTTCGTGTTCCTCGTGCTCCTGCCCCTCGTCTCCAGCCAGTGCGTGTACCTCATGACACTCCCCCTGGACGGACTCGGGCACCCCTTCCCCCTGCCACCCTGGTACATCTGGCTGGGCTTCATCGCAGGACTGATCGCCATCGTCATGGTCACCATAATGCTCTGTTGCATGACCTCCTGCTGTAGCTGCCTGAAAGGCTGTTGCAGCTGCGGGAGCTGCTGCAAATTCGACGAAGACGATAGCGAACCTGTGCTCAAAGGGGTGAAGTTGCATTACACATAGTGA ; Z-avg. = 78.82

# credit: patent US20240189408A1
